Attribute: Kd
- Target System: T1, murine IL-11 (Invigate, e.g., lot #C210819-09) (mouse, UniProt P47873 22-199)
- T1 construct: Bought protein; biotinylated where captured on streptavidin plates; also called mIL-11; mIL11
- T1 sequence: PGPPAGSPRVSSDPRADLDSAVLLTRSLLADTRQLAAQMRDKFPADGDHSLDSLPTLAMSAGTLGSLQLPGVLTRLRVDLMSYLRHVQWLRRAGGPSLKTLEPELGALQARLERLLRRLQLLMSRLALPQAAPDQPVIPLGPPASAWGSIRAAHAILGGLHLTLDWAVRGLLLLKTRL
- Experiment Description: SPR, Biacore 8K; antibody captured on anti-human IgG Fc chip, IL-11 analyte 0-50 nM, 1:1 fit
Output spec: scalar in nM, unitless text.

Known results for binders:
TPP-31277 (antibody, human IgG4, V domains shown, consecutive numbering; also called VL-N31S) VH: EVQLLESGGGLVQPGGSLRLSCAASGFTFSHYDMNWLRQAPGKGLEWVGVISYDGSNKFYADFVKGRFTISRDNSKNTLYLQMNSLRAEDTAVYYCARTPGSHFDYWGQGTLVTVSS VL: QSVLTQPPSASGTPGQRVTISCSGSSSNIGSNAVNWYQQLPGTAPKLLIYYDDLLPSGVPDRFSGSKSGTSASLAISGLRSEDEADYYCSAWDDSLNGVVFGGGTKLTVL: 12
TPP-31296 (antibody, human IgG4, V domains shown, consecutive numbering; also called VH-F63S) VH: EVQLLESGGGLVQPGGSLRLSCAASGFTFSHYDMNWLRQAPGKGLEWVGVISYDGSNKFYADSVKGRFTISRDNSKNTLYLQMNSLRAEDTAVYYCARTPGSHFDYWGQGTLVTVSS VL: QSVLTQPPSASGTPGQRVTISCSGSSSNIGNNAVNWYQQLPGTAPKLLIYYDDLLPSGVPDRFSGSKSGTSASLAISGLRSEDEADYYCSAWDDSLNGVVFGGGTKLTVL: 12
TPP-31310 (antibody, human IgG4, V domains shown, consecutive numbering; also called VH-G55S / VL-N97S) VH: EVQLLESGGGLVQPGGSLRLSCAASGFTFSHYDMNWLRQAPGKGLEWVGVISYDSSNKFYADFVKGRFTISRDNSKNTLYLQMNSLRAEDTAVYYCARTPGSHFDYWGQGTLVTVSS VL: QSVLTQPPSASGTPGQRVTISCSGSSSNIGNNAVNWYQQLPGTAPKLLIYYDDLLPSGVPDRFSGSKSGTSASLAISGLRSEDEADYYCSAWDDSLSGVVFGGGTKLTVL: 43

Q: I would be grateful if you could share the reported Kd for TPP-31295 (antibody, human IgG4, V domains shown, consecutive numbering; also called VH-F59Y) VH: EVQLLESGGGLVQPGGSLRLSCAASGFTFSHYDMNWLRQAPGKGLEWVGVISYDGSNKYYADFVKGRFTISRDNSKNTLYLQMNSLRAEDTAVYYCARTPGSHFDYWGQGTLVTVSS VL: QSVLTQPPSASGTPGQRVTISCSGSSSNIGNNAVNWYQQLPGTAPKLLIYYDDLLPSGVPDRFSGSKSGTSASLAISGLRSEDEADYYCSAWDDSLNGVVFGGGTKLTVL .
A: 33

Q: I would be grateful if you could share the reported Kd for TPP-31298 (antibody, human IgG4, V domains shown, consecutive numbering; also called VL-N97S) VH: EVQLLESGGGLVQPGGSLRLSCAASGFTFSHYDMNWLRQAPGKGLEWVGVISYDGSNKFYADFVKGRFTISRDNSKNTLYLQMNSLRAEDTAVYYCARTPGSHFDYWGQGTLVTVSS VL: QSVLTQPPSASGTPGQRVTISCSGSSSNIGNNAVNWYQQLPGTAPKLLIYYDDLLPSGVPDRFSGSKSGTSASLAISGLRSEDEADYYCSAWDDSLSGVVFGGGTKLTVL .
A: 13
